Record: Human Protein binding (%free) reported on human plasma protein.
Enter the number, and then the unit.

# example entries with known answers
> print(dat)
                            molecule.smiles              reported.property     result
1  COCCN1CCN(S(=O)(=O)c2ccc(-c3ccc(Cl)cc3)cc2)[C@@H](C(=O)NO)C1  Human Protein binding (%free)  5.2 %free
2  COCCN1CCN(S(=O)(=O)c2ccc(Oc3ccc(C(F)(F)F)cc3)cc2)[C@@H](C(=O)NO)C1  Human Protein binding (%free)  3.4 %free
3  COCCN1CCN(S(=O)(=O)c2ccc(Oc3ccc(Cl)cc3)cc2)[C@@H](C(=O)NO)C1  Human Protein binding (%free)  2.3 %free

Okay, now this compound:
Given the entry COCCN1CCN(S(=O)(=O)c2ccc(Oc3ccc(OC)cc3)cc2)[C@@H](C(=O)NO)C1 , report its measured Human Protein binding (%free). 6.4 %free

---

- METHOD: physchem
- TEST CONDITIONS: aqueous medium at pH 7.4, pH 7.4, aqueous buffer
REPORTED PROPERTY: log10 solubility (log10 of the value in µM)
Plainly stated, the numbers are log10 of solubility given in µM.

> print(dat)
                            molecule.smiles  reported.property  numeric.value
1  COc1ccc(S(=O)(=O)N2CCNC[C@@H]2C(=O)NO)cc1.Cl   log10 solubility           2.36

Requested field: log10 solubility. Item: COCCN1CCN(S(=O)(=O)c2ccc(-c3ccc(F)cc3)cc2)[C@@H](C(=O)NO)C1 2.67

Data request, read-out log10 solubility, for COCCN1CCN(S(=O)(=O)c2ccc(-c3ccc(Cl)cc3)cc2)[C@@H](C(=O)NO)C1 2.49

What value of log10 solubility has been recorded for this entry: COCCN1CCN(S(=O)(=O)c2ccc(Oc3ccc(OC)cc3)cc2)[C@@H](C(=O)NO)C1 2.37

So what's the measured log10 solubility for this one? COc1ccc(S(=O)(=O)N2CCN(S(=O)(=O)c3ccc(OC)cc3)[C@@H](C(=O)NO)C2)cc1 1.40

---

Consider the following compounds and their measured microsomal CLint readings.
- METHOD: in vitro
- TEST CONDITIONS: human, microsomes
Express your answer in µL/min/mg, writing the number without its unit.

Below: 2 compounds and their reported microsomal CLint.
> print(dat)
                            molecule.smiles  reading.unit  numeric.value
1  COCCN1CCN(S(=O)(=O)c2ccc(-c3ccc(F)cc3)cc2)[C@@H](C(=O)NO)C1     µL/min/mg            7.1
2  COc1ccc(S(=O)(=O)N2CCN(S(=O)(=O)C3CC3)C[C@@H]2C(=O)NO)cc1     µL/min/mg            8.3

Now, please, on to the next compound.
Dear colleague, I am looking for the recorded microsomal CLint of the following compound: COCCN1CCN(S(=O)(=O)c2ccc(Oc3ccc(OC(F)(F)F)cc3)cc2)[C@@H](C(=O)NO)C1 8

---

- METHOD: in vivo
- TEST CONDITIONS: male, CD1, mouse, plasma, po, 20 mg/kg
REPORTED PROPERTY: half-life (h)
Please reply with the bare figure in h and do not write the unit itself.

What measured half-life goes with COc1ccc(S(=O)(=O)N2CCN(S(=O)(=O)C3CC3)C[C@@H]2C(=O)NO)cc1 [compound 23] ? 1.41
